Source of measurements: patent US11479539B2

TARGET SYSTEM: Keap1 (Homo sapiens (Human), UniProt Q14145)
Sequence (Q14145 whole entry): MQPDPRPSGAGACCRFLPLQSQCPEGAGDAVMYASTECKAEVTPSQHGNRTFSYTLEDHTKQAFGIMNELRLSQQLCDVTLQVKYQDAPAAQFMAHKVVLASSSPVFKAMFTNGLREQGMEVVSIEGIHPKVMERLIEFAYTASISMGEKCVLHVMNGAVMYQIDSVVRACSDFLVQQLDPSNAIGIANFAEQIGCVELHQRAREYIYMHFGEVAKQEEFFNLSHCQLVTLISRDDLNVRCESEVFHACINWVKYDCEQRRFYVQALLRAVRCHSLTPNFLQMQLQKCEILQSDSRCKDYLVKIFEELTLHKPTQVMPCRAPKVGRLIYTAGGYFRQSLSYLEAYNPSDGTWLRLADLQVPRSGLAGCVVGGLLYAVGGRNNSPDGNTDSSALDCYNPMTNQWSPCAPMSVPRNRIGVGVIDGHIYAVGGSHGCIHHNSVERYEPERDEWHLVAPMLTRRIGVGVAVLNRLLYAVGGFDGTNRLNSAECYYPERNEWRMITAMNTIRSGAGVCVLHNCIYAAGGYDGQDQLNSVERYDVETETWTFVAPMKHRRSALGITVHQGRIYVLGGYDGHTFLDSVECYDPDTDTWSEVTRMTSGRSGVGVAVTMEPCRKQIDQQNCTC
ASSAY REMARKS: HEK293 ARE luciferase assay
RECORDED CONDITIONS: HEK-293 ARE firefly luciferase transiently transfected cells; 18 h incubation; mean of 1 to 20 individual measurements

{"columns": ["COMPOUND", "EC50"],
 "data": [
  ["COC1(c2cccc(-c3cnn(C)c3)n2)C=C(C#N)C(=O)C2(CC2)C1 (single isomer, unassigned) [Compound 49]", "138 nM"],
  ["COC1(c2ncc(F)cc2-c2cccnc2C)C=C(C#N)C(=O)C(C)(C)C1 (stereo not shown) [Compound 177]", "103 nM"],
  ["COC1(c2nccs2)C=C(C#N)C(=O)C(C)(C)C1 (single isomer, unassigned) [Compound 39]", "125 nM"],
  ["COC1(c2ncc(F)cc2C#CC(C)C)C=C(C#N)C(=O)C(C)(C)C1 (single isomer, unassigned) [Compound 100]", "77 nM"]
]}
